tested on: MDA-MB-468 breast; experiment: NCI-60 one-dose screen, 48 h; conditions: 10 µM unless noted
This is part of a sample that, as a whole, favours compounds with a hit. Of some 83,000 tested, about 20% had one in any assay. Calls of active or inactive are those of the source. Rule for the calls: active = growth percent below 10; inactive = the rest.
Field 'call' accepts 1.0 for active, 0.0 for inactive

Q: So what was the verdict on `O=C1c2ccccc2C(=O)c2c1oc1oc3c(c(=O)c21)c(=O)n(-c1ccccc1)c1ccccc31` in this test?
Result: 1.0

Q: So what was the verdict on `COc1cc(CNC(=O)/C=C/c2ccccc2)ccc1OCC(=O)NO` in this test?
Result: 0.0

Q: So what was the verdict on `COc1cc(/C=N/NC(=O)c2ccc(-n3cc(-c4ccccc4)nn3)cc2)cc(OC)c1OC` in this test?
Result: 0.0

Q: So what was the verdict on COc1ccc(C(=O)OC2C(OC3C(O)COC(O[C@H]4C[C@H]5[C@@H]6CC=C7C[C@@H](O)CC[C@]7(C)[C@H]6CC[C@]5(C)[C@H]4[C@H](C)C(=O)CCC(C)C)C3OC(N)=O)OCC(O)C2O)cc1 (some centres not stated) in this test?
Result: 1.0

Q: So what was the verdict on `CCOc1ccc(NC(=S)N2CCC(CCCC3CCN(C(=S)Nc4ccc(OCC)cc4)CC3)CC2)cc1` in this test?
Result: 0.0

Q: So what was the verdict on CC(C)C(NC(=O)C1(NC(=O)OCc2ccccc2)CCCC1)C(=O)O (configuration not stated) in this test?
Result: 0.0

Q: So what was the verdict on `c1ccc(-c2cn3nc(-c4c[nH]c5ccccc45)sc3n2)cc1` in this test?
Result: 0.0

----------
system: MDA-MB-468 breast; test: NCI-60 one-dose screen, 48 h (100 = growth as untreated, 0 = no growth, -100 = all killed); settings: 10 µM unless noted
The panel holds about 83,000 compounds, 20% with a hit somewhere; the sample as a whole holds those more often. The source made the active and inactive calls. How the source made its calls: active means growth percent below 10; inactive means the rest.
Would you kindly list growth for each of these compounds?

Q: Could you share which growth value was measured for `CCOC(=O)c1ccc(N(C=O)CCC(=O)CCl)cc1` ?
Result: 40.3% (inactive)

Q: Could you share which growth value was measured for `O=C(C[n+]1ccccc1Cl)c1ccc2c(c1)CCCC2` ?
Result: 45.1% (inactive)

Q: Could you share which growth value was measured for `Nc1nc(-c2ccccc2)nc(N)c1N=O` ?
Result: 72.4% (inactive)

----------
Would you kindly list growth for each of these molecules?
test system: MDA-MB-468 breast; assay: NCI-60 one-dose screen, 48 h (100 = growth as untreated, 0 = no growth, -100 = all killed); details: 10 µM unless noted
Compounds without any hit were thinned out: in the full panel of roughly 83,000, 20% have a hit.
Kindly answer with a numeric value in %, unit omitted.

Q: Could you share which growth value was measured for `CC/C=C1/C(=O)C=C[C@@H]1C/C=C\CCCC(=O)O` ?
Result: 73.5

Q: Could you share which growth value was measured for N#CC1=C(N)Oc2cc(N)ccc2C1c1cccnc1 (stereo not given) ?
Result: 97.9

Q: Could you share which growth value was measured for `Cc1oc(-c2ccc(Cl)cc2Cl)cc1C(=O)Nc1nccs1` ?
Result: 94.4

Q: Could you share which growth value was measured for `O=C(Cc1ccc(/C=C/C(=O)c2ncc[nH]2)cc1)Nc1ccc(C(F)(F)F)cc1` ?
Result: 15.1

Q: Could you share which growth value was measured for `CCN(C(=O)N1CCN(c2cc3c(cc2F)c(=O)c(C(=O)O)cn3C2CC2)CC1)c1nc(-c2ccc(C)cc2)cs1` ?
Result: -0.725

Q: Could you share which growth value was measured for `COc1cc(CNC(=O)CCCC/C=C/C(C)C)ccc1OCc1cn(-c2cccc([N+](=O)[O-])c2)nn1` ?
Result: 72.3

Q: Could you share which growth value was measured for `C[n+]1ccc(Nc2ccc(NC(=O)c3ccc(Nc4cc[n+](C)c5ccc(N)cc45)cc3)cc2)cc1` ?
Result: 94.8

Q: Could you share which growth value was measured for `CC(C)N(CCCC#N)C(C)C` ?
Result: 104

Q: Could you share which growth value was measured for CNC(=O)OC1C(O[C@H]2C[C@H]3[C@@H]4CC=C5C[C@@H](O)CC[C@]5(C)[C@H]4CC[C@]3(C)[C@H]2[C@H](C)C(=O)CCC(C)C)OCC(O)C1OC1OCC(O)C(O)C1OC(=O)c1ccc(OC)cc1 (stereo not given in full) ?
Result: -0.149

Q: Could you share which growth value was measured for `O=C(OCCBr)c1ccc(Cl)c([N+](=O)[O-])c1` ?
Result: -79.8

Q: Could you share which growth value was measured for O=C1CSC(c2ccccc2O)N1c1nnc(Cn2cnnc2)o1 (stereo not given) ?
Result: 96.2

Q: Could you share which growth value was measured for COc1ccc2c(c1)OC(N(C(C)=O)C(C)=O)=C(C#N)C2c1ccc(F)cc1 (stereo not given) ?
Result: -36.1

Q: Could you share which growth value was measured for `CCCCCCCCNC(=O)C(C)C` ?
Result: 85.4

Q: Could you share which growth value was measured for `N/C(=N\c1nc2c(Cl)cccc2s1)C(Cl)(Cl)Cl` ?
Result: 22.6

Q: Could you share which growth value was measured for `COc1cc(-c2nn(-c3ccc(NC(=O)NCCNS(=O)(=O)c4ccc(F)cc4)cc3)cc2-c2ccncc2)ccc1Cl` ?
Result: -27

Q: Could you share which growth value was measured for `CCCNC(=O)Oc1ccc(/C(=C(\C)c2ccccc2)c2ccc(OCCN3CCCCC3)cc2)cc1` ?
Result: 73.6

Q: Could you share which growth value was measured for `Cc1cc(C)c(NC(=O)c2sc3nc4c(cc3c2N)C(=O)CCC4)c(C)c1` ?
Result: -27.2

Q: Could you share which growth value was measured for `COc1ccc(-c2nn(-c3cccc(NC(=O)Nc4ccc(Cl)c(C(F)(F)F)c4)c3)cc2-c2ccncc2)cc1Cl` ?
Result: 23.1

Q: Could you share which growth value was measured for `COc1ccc(-c2cc(-c3ccccc3)nc(NCCNc3ccnc4cc(Cl)ccc34)n2)cc1` ?
Result: -73.7

Q: Could you share which growth value was measured for `C#CCN(C)CCCOc1ccc(NC(=O)CCCCCCC(=O)NO)cc1Cl` ?
Result: -0.749

Q: Could you share which growth value was measured for `COc1ccc(-c2c(-c3ccccc3)noc2N)cc1OC` ?
Result: 85.7

Q: Could you share which growth value was measured for `ClC(Cl)c1nc(-c2cccnc2)n2nc(-c3ccccc3)cc2n1` ?
Result: -29.7

Q: Could you share which growth value was measured for C/C(=C\c1ccccc1)C(O)C(=O)c1nc2ccc([N+](=O)[O-])cc2[nH]c1=O (stereo not given) ?
Result: 89.7

Q: Could you share which growth value was measured for `C=CC(=O)Nc1cccc(Nc2nc(SC)nc(-c3cccc([N+](=O)[O-])c3)c2C#N)c1` ?
Result: 55.9

Q: Could you share which growth value was measured for `COc1cc2c(cc1-c1c(C)noc1C)ncc1nc(C3CCCC3)n([C@H](C)COC(F)F)c12` ?
Result: 32.7

Q: Could you share which growth value was measured for `[2H]c1nc(Nc2ncc3cc(C(=O)N(C)C)n(C4CCCC4)c3n2)c([2H])c([2H])c1N1C([2H])([2H])C([2H])([2H])NC([2H])([2H])C1([2H])[2H]` ?
Result: 89

Q: Could you share which growth value was measured for `CC(C)(O)c1cncc(-c2ccc3ncnc(NCc4ccccc4)c3c2)c1` ?
Result: 64.8

Q: Could you share which growth value was measured for `O=Nc1c(O)ccc2ccccc12.O=Nc1c(O)ccc2ccccc12.O=Nc1c([O-])ccc2ccccc12.[Fe+3]` ?
Result: 106

Q: Could you share which growth value was measured for `CCOC(=O)c1ccc(NC(=O)Nc2ncc(Cl)cc2Cl)cc1` ?
Result: 95.1

Q: Could you share which growth value was measured for `O=c1cc(-c2ccccc2)oc2c(O)c(O)ccc12` ?
Result: 79.5

----------
Would you kindly list growth for each of these compounds?
System: MDA-MB-468 breast
Test: NCI-60 one-dose screen, 48 h (100 = growth as untreated, 0 = no growth, -100 = all killed)
Settings: 10 µM unless noted
Experimental: Growth inhibition of the MDA-MB-468 human Breast tumor cell line is measured as a screen for anti-cancer activity. Cells are grown in 96 well plates and exposed to the test compound for 48 hours. Compounds are tested at a single concentration, which is 10^-5 M for most compounds. The reported endpoint is percent growth (GI% or GIPRCNT), where numbers from 0 - 100% represent growth inhibition, and numbers from -100% - 0 represent cell death. […]
Compounds without any hit were thinned out: in the full panel of roughly 83,000, 20% have a hit.
Kindly answer with a numeric value in %, unit omitted.

Q: Could you share which growth value was measured for `CN(C)c1ccc(/C=C\c2cccc[n+]2C)cc1` ?
Result: 4.18

Q: Could you share which growth value was measured for `COc1cc(N)ccc1Nc1c2ccccc2nc2ccccc12` ?
Result: 92.4

Q: Could you share which growth value was measured for `COc1ccc(S(=O)(=O)Nc2cc(/C=C\c3cc(OC)c(OC)c(OC)c3)cc(OC)c2OC)cc1` ?
Result: 19.5

Q: Could you share which growth value was measured for `Cc1cnc(C=O)c2cccc([N+](=O)[O-])c12` ?
Result: 89.7

Q: Could you share which growth value was measured for `O=c1c(N=Nc2nccs2)c(-c2ccccc2)[nH]n1-c1nc(-c2ccccc2)cs1` ?
Result: 29

Q: Could you share which growth value was measured for `COc1cc(/C=C2\C(=O)N(CCCCn3c4ccccc4c(=O)c4ccccc43)c3ccccc32)cc(OC)c1O` ?
Result: 46.2

Q: Could you share which growth value was measured for `O=C(c1ccc(F)cc1)C1CCN(CCn2c(=O)[nH]c3ccccc3c2=O)CC1` ?
Result: 104

Q: Could you share which growth value was measured for `CCCCN(CCCC)c1ccc(C(=N)c2ccc(N(CCCC)CCCC)cc2)cc1` ?
Result: -92.9

Q: Could you share which growth value was measured for `Nc1nc(-c2cccc([N+](=O)[O-])c2)c(N=Nc2cccc(Cl)c2)s1` ?
Result: 11.5

Q: Could you share which growth value was measured for CN1CCCc2cc(/C=C3\SC(=S)N(C(Cc4ccc(O)cc4)C(=O)O)C3=O)ccc21 (centres undefined) ?
Result: 93.6

Q: Could you share which growth value was measured for `Nc1nc(N)c2c(ccc3c2ccn3Cc2cccc([N+](=O)[O-])c2)n1` ?
Result: -84.7

Q: Could you share which growth value was measured for `CCCN1CCN(c2ccc3nc(-c4ccc5nc(-c6ccc(OCC)c(OCC)c6)[nH]c5c4)[nH]c3c2)CC1` ?
Result: -77.2

Q: Could you share which growth value was measured for `COc1cc2c3c(cccc3c1)C(=O)N(CCN1CCCC1)C2=O` ?
Result: -3.53

Q: Could you share which growth value was measured for `O=C1CS/C(=N\Nc2cc(=O)[nH]c3ccccc23)N1c1ccccc1` ?
Result: 96.9
